- test protocol: Metabolic stability in human liver microsomes assessed as half life in presence of NADPH incubated up to 60 mins by LC-MS/MS analysis
- Format: ADME, Microsome

{"columns": ["structure string", "half-life (h)"],
 "data": [
  ["O=C(O)c1ccc(-c2csc(N3[C@@H]4CC[C@H]3C[C@@H](OCc3c(-c5ccccc5OC(F)(F)F)noc3C3CC3)C4)n2)cc1C(F)(F)F", 2.5]
]}

###

- study system: Bile acid receptor (Homo sapiens, UniProt Q96RI1)
- Sequence (Q96RI1 whole entry): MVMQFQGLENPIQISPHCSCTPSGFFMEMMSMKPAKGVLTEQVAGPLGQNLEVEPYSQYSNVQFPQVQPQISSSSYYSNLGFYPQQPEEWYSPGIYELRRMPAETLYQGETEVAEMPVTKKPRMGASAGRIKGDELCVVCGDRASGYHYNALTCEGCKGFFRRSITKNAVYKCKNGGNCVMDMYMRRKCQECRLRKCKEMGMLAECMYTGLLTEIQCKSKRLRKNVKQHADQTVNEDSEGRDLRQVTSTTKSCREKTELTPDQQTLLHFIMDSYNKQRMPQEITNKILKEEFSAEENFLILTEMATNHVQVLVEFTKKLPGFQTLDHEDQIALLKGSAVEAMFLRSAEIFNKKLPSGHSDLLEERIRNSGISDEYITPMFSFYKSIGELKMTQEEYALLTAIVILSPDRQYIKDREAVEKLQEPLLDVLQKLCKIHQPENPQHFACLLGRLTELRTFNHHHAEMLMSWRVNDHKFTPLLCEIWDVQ
- test protocol: Agonist activity at FXR in human HeLa cells incubated for 24 hrs by Dual-Glo luciferase assay
- Format: cell-based
reported metric: EC50 (µM)

{"columns": ["structure string", "uom", "result"],
 "data": [
  ["CC(C)c1onc(-c2c(Cl)cccc2Cl)c1COc1ccc(CNc2ccc(CC(=O)O)cc2)c(Cl)c1", "µM", 0.94]
]}

###

- study system: UniProt:Q96RI1
- Sequence (Q96RI1 whole entry): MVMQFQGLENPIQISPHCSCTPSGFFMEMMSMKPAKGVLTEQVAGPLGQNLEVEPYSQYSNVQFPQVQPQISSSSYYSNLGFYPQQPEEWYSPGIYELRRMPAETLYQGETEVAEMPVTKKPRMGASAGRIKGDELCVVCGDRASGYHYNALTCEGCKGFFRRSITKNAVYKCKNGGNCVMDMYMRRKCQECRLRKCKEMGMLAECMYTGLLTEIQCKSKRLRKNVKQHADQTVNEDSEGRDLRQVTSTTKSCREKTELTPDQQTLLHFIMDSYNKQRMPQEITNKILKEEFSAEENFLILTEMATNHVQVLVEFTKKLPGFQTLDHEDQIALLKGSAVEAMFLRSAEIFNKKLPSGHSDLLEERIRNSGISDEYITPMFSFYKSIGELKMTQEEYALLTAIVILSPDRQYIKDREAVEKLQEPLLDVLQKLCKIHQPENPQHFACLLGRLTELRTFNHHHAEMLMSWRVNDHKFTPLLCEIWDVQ
- test protocol: Agonist activity at FXR in human HeLa cells incubated for 24 hrs by Dual-Glo luciferase assay
- Assay type: cell-based
- study conditions: hela

{"columns": ["structure string", "EC50, nM"],
 "data": [
  ["COc1cc(C(=O)O)ccc1Cn1ccc2ccc(NC(=O)c3ccc(C(C)(C)C)cc3)cc21", 260],
  ["CC(C)(C)c1ccc(C(=O)Nc2ccc3ccn(Cc4ccc(C(=O)O)cc4)c3c2)cc1", 3500]
]}
